These entries and their values trace back to patent US20260199323A1.

system: Kasumi-1; assay: CCK-8 tumor cell proliferation, Kasumi-1; assay type: cell-based, Human; details: Homo sapiens; Table 19, IRAK4 inhibitor based; Kasumi-1; read-out: IC50 inhibiting proliferation of tumor cells, Kasumi-1
parameterMeasured: IC50

Some entries whose results are on file:
O=C1CCC(N2Cc3c(ccc(CN4CCN(c5ccc(-n6cc(NC(=O)c7coc(-c8ccnc(NCC(F)(F)F)c8)n7)c(C(F)F)n6)cc5)CC4)c3F)C2=O)C(=O)N1 (stereo not drawn) | 100 to 500 nM
O=C1CCC(N2Cc3cc(CN4CCC(n5cc(NC(=O)c6cnn7ccc(N8CCOCC8)nc67)c(C(F)F)n5)CC4)ccc3C2=O)C(=O)N1 (stereo not drawn) | < 50 nM
O=C1CCC(N2Cc3c(ccc(CN4CCC(n5cc(NC(=O)c6cnn7ccc(N8CCOCC8)nc67)c(C(F)F)n5)CC4)c3F)C2=O)C(=O)N1 (stereo not drawn) | < 50 nM

Prompt line: Look at this compound and give its reported IC50. O=C1CCC(N2Cc3cc(CN4CCC(n5cc(NC(=O)c6cnn7ccc(N8CCOCC8)nc67)c(C(F)F)n5)CC4)c(F)cc3C2=O)C(=O)N1 (stereo not drawn)
Response line: < 50 nM

Prompt line: Another compound to check: O=C1CCC(N2Cc3cc(CN4CCN(c5ccc(-n6cc(NC(=O)c7coc(-c8ccnc(NCC(F)(F)F)c8)n7)c(C(F)F)n6)cc5)CC4)cc(F)c3C2=O)C(=O)N1 (stereo not drawn)
Response line: 100 to 500 nM

Prompt line: Another compound to check: O=C1CCC(N2C(=O)c3ccc(CN4CCN(c5ccc(-n6cc(NC(=O)c7coc(-c8ccnc(NCC(F)(F)F)c8)n7)c(C(F)F)n6)cc5)CC4)cc3C2=O)C(=O)N1 (stereo not drawn)
Response line: 50 to 100 nM
